B1: GA-binding protein alpha chain, residues 172 to 250; numbered along this chain, Q06546 (parent)
chain: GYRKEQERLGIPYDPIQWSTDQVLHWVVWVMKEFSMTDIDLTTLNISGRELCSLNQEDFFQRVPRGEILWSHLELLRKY

- Variants of: B1
- protocol-text: abundance fitness (aPCA) (normalised: wild type 0, dead -1); higher = more abundant; growth selection in yeast, the domain comes from the species named
- conditions-used: Homo sapiens
quantity: abundance fitness
Lab note: jot the number down without any unit.

Challenge: Tell me measured abundance fitness for GYRKEQERLGIPYDPIQWSTDQVLHWVVWVMKEFSMTDIDLTTLNISGRELCSLNQEDFFQRIPRGEILWSHLELLRKY [V63I] please.
Response given: -0.077

Challenge: Tell me measured abundance fitness for GYRKEQERLGIPYDPIQWSTDQVLHWVVWVMKEFSMTDIDLTTLNISGRELCSLNQEDFFQRVPRGEILWSQLELLRKY [H72Q] please.
Response given: 0.019

Challenge: Tell me measured abundance fitness for GYRKEQERLGIPYDPIQWSTDQALHWVVWVMKEFSMTDIDLTTLNISGRELCSLNQEDFFQRVPRGEILWSHLELLRKY [V23A] please.
Response given: -0.575

Challenge: Tell me measured abundance fitness for GYRKEQERLGIPYDPIQWSTDQVLHWVVWVMKEFSMTDIDLTTLNISGRELCSLNQEDRFQRVPRGEILWSHLELLRKY [F59R] please.
Response given: -0.552

Challenge: Tell me measured abundance fitness for GYRKEQERLGIPYDPIQWSTDQVLHWVVWVMKEFSMTDIDLTTLNISGRELLSLNQEDFFQRVPRGEILWSHLELLRKY [C52L] please.
Response given: -0.077

Challenge: Tell me measured abundance fitness for GYRKEQERLGIPYDPIQWSTDQVLHWVVWVMKEFSMTDIDLTTLNISGRELCSLNQEDFFQRVPRGENLWSHLELLRKY [I68N] please.
Response given: -0.194

Challenge: Tell me measured abundance fitness for GYRKEQERLGIPYDPIQWSTDQVLHWVVWVMKEFSMTDIDLTTLIISGRELCSLNQEDFFQRVPRGEILWSHLELLRKY [N45I] please.
Response given: -0.251

Challenge: Tell me measured abundance fitness for GYRKEQERLGIPYDPIQWSTDQVLHWVVWVMKEFSMTDIDLTTLNISGRELCSLNQEDFFQRVPRGEILWSHLELLRKH [Y79H] please.
Response given: 0.002

Challenge: Tell me measured abundance fitness for GYRKEQERLGIPYEPIQWSTDQVLHWVVWVMKEFSMTDIDLTTLNISGRELCSLNQEDFFQRVPRGEILWSHLELLRKY [D14E] please.
Response given: -0.15

Challenge: Tell me measured abundance fitness for GYRKEQERLGIPYDPIQWSTDQVLHWVVWVMKEFSMTDIDLTTLNISGRELCSLNQEDFFQRVPHGEILWSHLELLRKY [R65H] please.
Response given: -0.111

Challenge: Tell me measured abundance fitness for GYRKEQERLGIPYDPIQWSTDQVLHWVVWVMKEFSMADIDLTTLNISGRELCSLNQEDFFQRVPRGEILWSHLELLRKY [T37A] please.
Response given: -0.03

Challenge: Tell me measured abundance fitness for GYRKEQERLGIPYDPIQWSTDQVLHWVVWVDKEFSMTDIDLTTLNISGRELCSLNQEDFFQRVPRGEILWSHLELLRKY [M31D] please.
Response given: -0.794

Challenge: Tell me measured abundance fitness for GYRKEQERLGIPYDPIQWSTDQVLHWVVWVMKEFSMTDIILTTLNISGRELCSLNQEDFFQRVPRGEILWSHLELLRKY [D40I] please.
Response given: -0.533

Challenge: Tell me measured abundance fitness for GYRKEQERLGIPYDPIQWSTDQVLHWVVWVMKEFSMTDIDLTTLNISGRELCSLNQEDFFQRFPRGEILWSHLELLRKY [V63F] please.
Response given: 0.018

Challenge: Tell me measured abundance fitness for GYRKEQERLQIPYDPIQWSTDQVLHWVVWVMKEFSMTDIDLTTLNISGRELCSLNQEDFFQRVPRGEILWSHLELLRKY [G10Q] please.
Response given: 0.01

Challenge: Tell me measured abundance fitness for GYRKEQERLAIPYDPIQWSTDQVLHWVVWVMKEFSMTDIDLTTLNISGRELCSLNQEDFFQRVPRGEILWSHLELLRKY [G10A] please.
Response given: -0.068

Challenge: Tell me measured abundance fitness for GYRKEQERLGIPYVPIQWSTDQVLHWVVWVMKEFSMTDIDLTTLNISGRELCSLNQEDFFQRVPRGEILWSHLELLRKY [D14V] please.
Response given: -0.856

Challenge: Tell me measured abundance fitness for GYRKEQERLGIPYDPIQWSPDQVLHWVVWVMKEFSMTDIDLTTLNISGRELCSLNQEDFFQRVPRGEILWSHLELLRKY [T20P] please.
Response given: -0.013

Challenge: Tell me measured abundance fitness for GYRKEQERLGIPYDPIQWSTDQVLHWVVWVMKEFSMTDIDLTTLNISGRELCSLNQEDFFQRVPRGEILWSHLELLTKY [R77T] please.
Response given: -0.246

Challenge: Tell me measured abundance fitness for GYRKEQERLGIPYDPIQWSTDQVLHWVVWVMKEFSMTDIDLTTLNHSGRELCSLNQEDFFQRVPRGEILWSHLELLRKY [I46H] please.
Response given: -0.874

Challenge: Tell me measured abundance fitness for GYRKEQERLGIPYDPIQWSTDQVLHWVVWVMKEFSMTDIDLTTLVISGRELCSLNQEDFFQRVPRGEILWSHLELLRKY [N45V] please.
Response given: -0.122

Challenge: Tell me measured abundance fitness for GYRKEQERLGIPYDPIQWSTDQVLHWVVWVMKEFSMTDIDLTTLNISGRELCSLNQEDFFQRVPRGEILWSHLEDLRKY [L75D] please.
Response given: -0.022
